Hi there, I'd appreciate the recorded PBM E-score for every entry that follows.
# measured-on: Abf1 (UniProt P14164)
# Sequence: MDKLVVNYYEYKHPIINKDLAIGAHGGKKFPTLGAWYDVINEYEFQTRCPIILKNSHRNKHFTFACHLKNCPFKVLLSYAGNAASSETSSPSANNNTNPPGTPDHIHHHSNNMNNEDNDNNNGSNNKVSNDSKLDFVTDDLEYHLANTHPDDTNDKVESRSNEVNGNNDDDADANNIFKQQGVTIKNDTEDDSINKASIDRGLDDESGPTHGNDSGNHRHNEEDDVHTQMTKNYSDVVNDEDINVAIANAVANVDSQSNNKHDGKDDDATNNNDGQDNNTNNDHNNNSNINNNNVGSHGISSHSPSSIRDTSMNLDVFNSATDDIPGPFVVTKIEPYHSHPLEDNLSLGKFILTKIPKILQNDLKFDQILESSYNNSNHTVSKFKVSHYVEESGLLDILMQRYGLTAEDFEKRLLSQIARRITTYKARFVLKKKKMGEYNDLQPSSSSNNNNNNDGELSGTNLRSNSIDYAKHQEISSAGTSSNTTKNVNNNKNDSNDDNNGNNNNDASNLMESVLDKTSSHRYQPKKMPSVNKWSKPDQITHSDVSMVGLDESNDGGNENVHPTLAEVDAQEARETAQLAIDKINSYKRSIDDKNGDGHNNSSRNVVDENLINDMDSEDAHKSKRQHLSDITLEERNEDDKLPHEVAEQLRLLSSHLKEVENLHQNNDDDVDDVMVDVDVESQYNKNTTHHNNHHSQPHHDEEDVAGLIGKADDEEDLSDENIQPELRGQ
# protocol-notes: PBM E-score (8-mer binding enrichment) (E-score (-0.5 to 0.5)); higher = stronger / more preferred TF binding
# test-settings: protein concentration: 200 nM; construct: GST-full length
The full ranking holds about 33,000 sequences; the median of “E-score (-0.5 to 0.5)” is about -0.015, and the highest 2% start at about 0.3. Shown is part of a subset that was picked to be rich in the highest values.

In the examples that follow, each entry is paired with its recorded PBM E-score.
[
  {
    "query-sequence": "ATTAGCGA",
    "recorded-measurement": 0.136
  },
  {
    "query-sequence": "ATGATGCC",
    "recorded-measurement": 0.0807
  },
  {
    "query-sequence": "CTTAGCGA",
    "recorded-measurement": 0.0369
  },
  {
    "query-sequence": "ACCGGACG",
    "recorded-measurement": -0.0917
  },
  {
    "query-sequence": "CCTGATAA",
    "recorded-measurement": 0.1
  },
  {
    "query-sequence": "GGTGATAA",
    "recorded-measurement": 0.404
  }
]

Provide each entry's PBM E-score from the list below.
1. TCTGATAA
2. CTGATGAC
3. CTTGATAA
4. TCGGTGCA

Output line:
1. 0.134
2. 0.203
3. 0.138
4. -0.0272

Provide each entry's PBM E-score from the list below.
1. ATGATGCA
2. ATGATGAG
3. AGAAACCT

Output line:
0.309
0.141
-0.237

----------
Hi there, I'd appreciate the recorded PBM E-score for every entry that follows.
# measured-on: Abf1 (UniProt P14164)
# Sequence: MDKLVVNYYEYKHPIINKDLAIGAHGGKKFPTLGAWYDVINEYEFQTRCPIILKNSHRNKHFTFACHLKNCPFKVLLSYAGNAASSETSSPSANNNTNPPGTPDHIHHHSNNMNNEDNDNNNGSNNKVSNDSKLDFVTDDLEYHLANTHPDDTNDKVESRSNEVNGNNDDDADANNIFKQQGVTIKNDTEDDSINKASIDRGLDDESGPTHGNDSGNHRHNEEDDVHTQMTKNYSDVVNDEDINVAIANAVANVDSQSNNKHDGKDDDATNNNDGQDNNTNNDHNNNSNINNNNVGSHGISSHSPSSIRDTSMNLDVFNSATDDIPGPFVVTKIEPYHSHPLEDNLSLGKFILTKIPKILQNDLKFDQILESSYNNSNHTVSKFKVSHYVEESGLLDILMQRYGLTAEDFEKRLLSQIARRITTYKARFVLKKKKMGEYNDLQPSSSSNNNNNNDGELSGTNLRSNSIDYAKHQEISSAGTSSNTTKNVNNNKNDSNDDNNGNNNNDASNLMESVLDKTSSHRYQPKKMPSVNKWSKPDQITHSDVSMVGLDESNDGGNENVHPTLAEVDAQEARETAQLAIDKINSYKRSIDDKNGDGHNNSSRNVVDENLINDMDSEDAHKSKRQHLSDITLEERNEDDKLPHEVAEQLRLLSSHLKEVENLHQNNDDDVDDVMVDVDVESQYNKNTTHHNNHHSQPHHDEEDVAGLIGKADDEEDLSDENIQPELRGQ
# protocol-notes: PBM E-score (8-mer binding enrichment) (E-score (-0.5 to 0.5)); higher = stronger / more preferred TF binding
# test-settings: protein concentration: 200 nM; construct: GST-full length
Whole data set: some 33,000 sequences, median “E-score (-0.5 to 0.5)” near -0.015, cut for the highest 2% near 0.3. Many of the other results were omitted from the sample, so the highest values are more common in it than they were.
One number for each entry.

In the examples that follow, each entry is paired with its recorded PBM E-score.
[
  {
    "query-sequence": "CACGGGTC",
    "PBM E-score": -0.0483
  },
  {
    "query-sequence": "CCCCATGA",
    "PBM E-score": -0.167
  },
  {
    "query-sequence": "CTCCTGAC",
    "PBM E-score": 0.0261
  },
  {
    "query-sequence": "GTTGACTA",
    "PBM E-score": -0.164
  },
  {
    "query-sequence": "GTGACAAC",
    "PBM E-score": 0.375
  }
]

Provide each entry's PBM E-score from the list below.
1. GTGATCAC
2. CGCCCGCG
3. GACGTAGA
4. AACCACAT
5. ATTTCTTG
6. ACGATCGC
7. ATGATCAA

Output line:
1: 0.386; 2: -0.0644; 3: 0.0745; 4: 0.182; 5: 0.167; 6: 0.265; 7: 0.273

Provide each entry's PBM E-score from the list below.
1. CTTATCCC
2. CGTACGGC
3. AGATAAGG
4. ATAATGAT
5. AAGGAACA
6. GGCGTGCA
7. CTCAATGA
8. AATAACGA

Output line:
-0.0767
0.396
0.00618
0.344
-0.0655
-0.0867
0.0427
0.325

Provide each entry's PBM E-score from the list below.
1. ATCATGAG
2. AGGGCGCC

Output line:
1. 0.238
2. -0.0691

Provide each entry's PBM E-score from the list below.
1. GTGGTATA
2. GCAATTCA
3. CTAGCTGC
4. AACGACGG
5. AGTACGGC

Output line:
1: -0.0621; 2: -0.0514; 3: -0.114; 4: 0.249; 5: 0.224

----------
# measured-on: Abf1 (UniProt P14164)
# Sequence: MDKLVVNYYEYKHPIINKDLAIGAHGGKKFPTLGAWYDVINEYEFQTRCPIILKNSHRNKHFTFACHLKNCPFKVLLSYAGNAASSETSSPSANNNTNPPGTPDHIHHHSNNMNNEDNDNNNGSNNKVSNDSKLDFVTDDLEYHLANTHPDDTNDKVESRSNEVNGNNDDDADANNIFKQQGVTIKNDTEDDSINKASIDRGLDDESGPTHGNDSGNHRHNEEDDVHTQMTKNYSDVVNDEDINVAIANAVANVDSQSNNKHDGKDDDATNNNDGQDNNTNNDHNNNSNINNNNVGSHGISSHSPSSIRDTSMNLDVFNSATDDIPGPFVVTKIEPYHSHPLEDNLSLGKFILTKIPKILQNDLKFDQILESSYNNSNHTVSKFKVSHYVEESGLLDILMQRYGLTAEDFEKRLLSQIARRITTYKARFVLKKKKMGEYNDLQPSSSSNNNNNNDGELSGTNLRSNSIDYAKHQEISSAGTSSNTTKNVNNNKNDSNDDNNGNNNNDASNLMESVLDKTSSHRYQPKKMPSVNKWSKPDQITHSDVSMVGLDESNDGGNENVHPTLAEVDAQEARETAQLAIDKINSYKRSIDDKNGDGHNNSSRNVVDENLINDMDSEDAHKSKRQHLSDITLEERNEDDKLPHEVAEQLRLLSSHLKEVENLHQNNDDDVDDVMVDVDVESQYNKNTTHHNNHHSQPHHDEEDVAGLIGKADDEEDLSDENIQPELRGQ
# protocol-notes: PBM E-score (8-mer binding enrichment) (E-score (-0.5 to 0.5)); higher = stronger / more preferred TF binding
# test-settings: protein concentration: 200 nM; construct: GST-full length
Over roughly 33,000 sequences, “E-score (-0.5 to 0.5)” has its median near -0.015; the highest 2% begin near 0.3. The list comes from a sample in which the highest values are over-represented; it also holds close analogues and randomly drawn sequences.
Hi there, I'd appreciate the recorded PBM E-score for every entry that follows.

[
  {
    "query-sequence": "CCGTCATC",
    "PBM E-score": 0.128
  },
  {
    "query-sequence": "CCACGAAG",
    "PBM E-score": 0.0703
  },
  {
    "query-sequence": "ATCTGTCA",
    "PBM E-score": 0.212
  },
  {
    "query-sequence": "CGTTAGTC",
    "PBM E-score": 0.00116
  },
  {
    "query-sequence": "ATCATACA",
    "PBM E-score": 0.236
  },
  {
    "query-sequence": "ATTATACA",
    "PBM E-score": 0.0365
  }
]

Provide each entry's PBM E-score from the list below.
1. CCACGATA
2. ACGCACCA
3. ATCATTTC

Output line:
0.143
-0.101
0.312

Provide each entry's PBM E-score from the list below.
1. AGGTGATA
2. CGACGCGA

Output line:
1: 0.357; 2: -0.0138

Provide each entry's PBM E-score from the list below.
1. ATCATACC
2. ATCATTTG
3. GATCACCC

Output line:
0.205
0.276
0.261

Provide each entry's PBM E-score from the list below.
1. CCACGATC
2. CTGGGTAA
3. AGCGTGCA

Output line:
1. 0.335
2. -0.0825
3. 0.0338

Taken from the supplement of paper PMC3334620.
